From: patent US20220401564A1

# study-target: VHL (Homo sapiens)
# Construct: Cells stably expressing the BRD4BD2-GFP with mCherry reporter (40) were seeded; endogenous in cells
# Sequence (P40337 whole entry, species assumed): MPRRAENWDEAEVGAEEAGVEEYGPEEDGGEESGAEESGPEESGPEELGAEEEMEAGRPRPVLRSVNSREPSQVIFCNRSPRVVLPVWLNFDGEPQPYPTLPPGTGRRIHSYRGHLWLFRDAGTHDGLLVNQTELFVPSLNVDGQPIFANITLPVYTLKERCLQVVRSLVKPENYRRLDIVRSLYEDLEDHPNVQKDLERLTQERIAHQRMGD
# test-protocol: Cellular VHL engagement assay (BRD4BD2-GFP / mCherry reporter cells)
# assay-context: with 250 nM AT1, 5 h
property: IC50 (µM)

compound_structure=Cc1ncsc1-c1ccc([C@H](C)NC(=O)[C@@H]2C[C@@H](O)CN2C(=O)[C@@H](NC(=O)CCOCCOCCN(CCc2c[nH]c3ccccc23)Cc2ccc(/C=C/C(=O)NO)cc2)C(C)(C)C)cc1 value_observed=11.7
compound_structure=Cc1ncsc1-c1ccc([C@H](C)NC(=O)[C@@H]2C[C@@H](O)CN2C(=O)[C@@H](NC(=O)CCOCCOCCOCCN(CCc2c[nH]c3ccccc23)Cc2ccc(/C=C/C(=O)NO)cc2)C(C)(C)C)cc1 value_observed=15.1

P: Cc1ncsc1-c1ccc([C@H](C)NC(=O)[C@@H]2C[C@@H](O)CN2C(=O)[C@@H](NC(=O)CCOCCOCCOCCOCCN(CCc2c[nH]c3ccccc23)Cc2ccc(/C=C/C(=O)NO)cc2)C(C)(C)C)cc1
Q: Cc1ncsc1-c1ccc(CNC(=O)[C@@H]2C[C@@H](O)CN2C(=O)[C@@H](NC(=O)C2(F)CC2)C(C)(C)C)c(OCCCCCN(CCc2c[nH]c3ccccc23)Cc2ccc(/C=C/C(=O)NO)cc2)c1
Query string: When their IC50 values are compared, which is larger, P or Q ? Indicate your choice by writing its label.
Result string: P
(P: 22.9 µM, Q: 9.4 µM)
